Source: PubChem BioAssay (NCI)

Kindly state growth inhibition for each of the entries shown.
# experimentalProtocol: NCI Yeast Anticancer Drug Screen. Data for the rad50 strain (AID 155);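 further: 0% = growth of vehicle-only cultures of the same strain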
# particulars: S. cerevisiae rad50 strain growth inhibition; at 50.0 µM; hits give high values
This is part of a sample that, as a whole, favours compounds with a hit. Of some 79,000 tested, about 15% had one in any assay.
Field: numeric (%). Do not append units.

Reported growth inhibition ( NN1CCCC(O)C1 (configuration not stated) ) = -0.15

Reported growth inhibition ( CCOC(=O)CCCC(=O)N(CC(=O)OCC)Cc1ccccc1 ) = 2.6

Reported growth inhibition ( O=C1C2=C(c3ccccc31)C(c1ccc(Cl)cc1)NC(=S)N2 (configuration not stated) ) = 52.6

Reported growth inhibition ( CSc1ccc(NC(=O)Nc2ccccc2C(F)(F)F)cc1 ) = 2.05

Reported growth inhibition ( N#CC(NNC(=O)Cc1ccccc1)c1ccccc1O (configuration not stated) ) = 0.8

Reported growth inhibition ( Nc1ccc(C(=O)NN2C(=O)C(Cl)C2c2ccccc2)cc1 (configuration not stated) ) = -30.2

Reported growth inhibition ( CC(=O)Nc1cccc2ccc([N+](=O)[O-])cc12 ) = 13.1

Reported growth inhibition ( COc1ccc2c(c1)CCC(c1nc3ccc(C)cc3[nH]c1=O)C2=O (configuration not stated) ) = 7.95

Reported growth inhibition ( COc1ccccc1/C=N/N1C(=O)C2C3C=CC(O3)C2C1=O (configuration not stated) ) = 2.35

Reported growth inhibition ( c1ccc(-c2c3ccccc3cc3c2ccc2ccccc23)cc1 ) = -13.4

Reported growth inhibition ( O=C1CCNC/C1=C\c1ccccc1 ) = 6.25

Reported growth inhibition ( COc1ccc(C(O)(c2ccccc2)c2nccc3ccccc23)cc1 (configuration not stated) ) = 6.6
